Target or system Tyrosinase (Agaricus bisporus); recorded quantity IC50.

compound | tested.system | u | op | IC50
O=C/C=C/c1ccccc1 | Tyrosinase (Agaricus bisporus) | µM | = | 520
O=C(CCc1ccccc1O)O[C@@H]1O[C@H](CO)[C@@H](O)[C@H](O)[C@H]1O [DIHYDROCINNACASSIDE] | Tyrosinase (Agaricus bisporus) | µM | = | 670
OC[C@H]1O[C@@H](OCCc2ccccc2)[C@H](O)[C@@H](O)[C@@H]1O[C@@H]1OC[C@](O)(CO)[C@H]1O | Tyrosinase (Agaricus bisporus) | µM | = | 710
O[C@@H]1[C@@H](O)[C@@H](OC/C=C/c2ccccc2)O[C@H](CO[C@@H]2OC[C@H](O)[C@H](O)[C@H]2O)[C@H]1O | Tyrosinase (Agaricus bisporus) | µM | > | 10000
O=C/C=C/c1ccccc1O [2-HYDROXYCINNAMALDEHYDE] | Tyrosinase (Agaricus bisporus) | µM | = | 470
COC(=O)CCc1ccccc1O[C@@H]1O[C@H](CO)[C@@H](O)[C@H](O)[C@H]1O [METHYL DIHYDROMELILOTOSIDE] | Tyrosinase (Agaricus bisporus) | µM | = | 630
Oc1ccc(O)cc1 [HYDROQUINONE] | Tyrosinase (Agaricus bisporus) | µM | = | 4210
OC/C=C/c1ccccc1 | Tyrosinase (Agaricus bisporus) | µM | > | 10000
O=C(O)/C=C/c1ccccc1O | Tyrosinase (Agaricus bisporus) | µM | = | 670
COc1ccccc1/C=C/C=O | Tyrosinase (Agaricus bisporus) | µM | = | 420
O=C(O)CCc1ccccc1O[C@@H]1O[C@H](CO)[C@@H](O)[C@H](O)[C@H]1O [DIHYDROMELILOTOSIDE] | Tyrosinase (Agaricus bisporus) | µM | = | 570
